assay-system: human mGluR7 (Homo sapiens)
Sequence (Q14831 35-915): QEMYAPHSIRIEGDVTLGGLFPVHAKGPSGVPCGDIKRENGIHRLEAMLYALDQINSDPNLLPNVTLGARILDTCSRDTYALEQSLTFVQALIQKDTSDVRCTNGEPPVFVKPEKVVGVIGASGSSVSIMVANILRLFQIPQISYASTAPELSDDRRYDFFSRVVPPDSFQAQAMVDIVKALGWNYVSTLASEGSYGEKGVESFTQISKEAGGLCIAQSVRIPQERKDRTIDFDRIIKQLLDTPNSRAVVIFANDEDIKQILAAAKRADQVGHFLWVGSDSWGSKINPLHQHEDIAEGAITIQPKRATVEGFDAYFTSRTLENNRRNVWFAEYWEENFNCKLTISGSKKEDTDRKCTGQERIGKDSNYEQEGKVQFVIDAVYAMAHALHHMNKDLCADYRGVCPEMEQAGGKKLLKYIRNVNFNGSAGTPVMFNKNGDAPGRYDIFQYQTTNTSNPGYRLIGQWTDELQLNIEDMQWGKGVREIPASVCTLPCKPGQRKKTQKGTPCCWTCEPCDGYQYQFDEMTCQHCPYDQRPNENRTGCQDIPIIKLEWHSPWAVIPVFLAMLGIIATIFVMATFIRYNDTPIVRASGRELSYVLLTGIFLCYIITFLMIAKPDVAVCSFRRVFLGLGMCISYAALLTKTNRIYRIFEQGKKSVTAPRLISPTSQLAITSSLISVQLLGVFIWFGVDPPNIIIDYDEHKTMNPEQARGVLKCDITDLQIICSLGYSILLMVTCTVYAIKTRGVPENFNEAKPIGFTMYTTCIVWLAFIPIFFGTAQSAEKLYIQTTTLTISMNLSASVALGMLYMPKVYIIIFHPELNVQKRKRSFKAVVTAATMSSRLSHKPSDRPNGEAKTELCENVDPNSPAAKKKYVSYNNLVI
protocol-details: mGluR7 assay: CRE-directed luciferase reporter gene assay, reduction of forskolin stimulated cAMP production
experimental-setup: stable CHO cell line expressing the CRE-luc reporter and human mGluR7 genes; decrease of forskolin stimulated luminescence; 10-point concentration-response, duplicate wells
Structures can show the parent of a compound that is named as a salt.
quantity-kind: EC50 (nM)

{"molecule": "COC1c2ccccc2CC1NC(=O)C(c1ccc(F)cc1F)N1CC(F)C1 (single isomer, unassigned) [Example 137]", "number": 741}
{"molecule": "N[C@H]1c2ccccc2C[C@@H]1NC(=O)C(c1ccc(F)cc1)C1CC1 (single isomer, unassigned) [Example 96]", "number": 54}
{"molecule": "COC1c2ccccc2CC1NC(=O)C(c1ccc(F)cc1F)N1CC(F)C1 (single isomer, unassigned) [Example 138]", "number": 14}
{"molecule": "CC(C(=O)N[C@H]1Cc2ccccc2[C@@H]1NC(=O)OC(C)(C)C)c1ccc(F)cc1Cl (stereo partly shown) [Example 153]", "number": 63}
{"molecule": "CC(F)(C(=O)N[C@H]1Cc2ccccc2[C@@H]1N)c1ccc(F)cc1 (stereo partly shown) [Example 75]", "number": 320}

P. CC(C)C(C(=O)N[C@H]1Cc2ccccc2[C@@H]1N)c1ccc(Cl)cc1 (stereo partly shown) [Example 20, hydrochloride]
Q. CC(C)(C)OC(=O)N[C@H]1c2ccccc2C[C@@H]1NC(=O)C(c1ccc(F)cc1F)N1CC(F)C1 (mixture of isomers) [Example 93]
// task: argmin of EC50 over [ P , Q ] # answer = label of selected item Q
